# measured on: PAD2 (Homo sapiens, UniProt Q9Y2J8)
# Construct: made in house
# Sequence (Q9Y2J8 whole entry): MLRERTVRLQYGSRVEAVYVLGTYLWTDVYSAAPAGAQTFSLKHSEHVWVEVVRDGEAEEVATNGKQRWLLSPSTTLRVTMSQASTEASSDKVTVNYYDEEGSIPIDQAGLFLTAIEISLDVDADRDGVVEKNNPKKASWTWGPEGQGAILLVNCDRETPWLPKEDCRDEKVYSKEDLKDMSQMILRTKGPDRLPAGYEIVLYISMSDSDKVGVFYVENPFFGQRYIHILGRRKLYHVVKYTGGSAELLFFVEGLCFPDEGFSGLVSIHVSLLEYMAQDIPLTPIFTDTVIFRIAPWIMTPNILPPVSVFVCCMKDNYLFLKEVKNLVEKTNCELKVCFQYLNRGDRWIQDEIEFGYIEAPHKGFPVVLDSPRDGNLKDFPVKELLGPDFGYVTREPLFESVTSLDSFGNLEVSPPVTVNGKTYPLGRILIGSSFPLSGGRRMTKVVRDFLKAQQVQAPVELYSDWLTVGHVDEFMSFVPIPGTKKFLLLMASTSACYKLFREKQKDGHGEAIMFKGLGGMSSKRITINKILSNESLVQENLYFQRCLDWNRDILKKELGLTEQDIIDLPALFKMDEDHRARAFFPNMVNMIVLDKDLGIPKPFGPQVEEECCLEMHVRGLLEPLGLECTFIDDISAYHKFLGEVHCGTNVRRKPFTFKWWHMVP
# assay summary: Inactivation kinetics, PAD2
# Assay type: biochemical
# condition details: a: single kobs determined; b: from a linear fit; other footnotes: from kinact and KI
metric: kinact/KI (M⁻¹ s⁻¹)

- CCN1Cc2cccc(C(=O)N[C@@H](CCCNC(=N)CF)c3nc4c(OC)cccc4[nH]3)c2C1=O: 396
- CCN1Cc2cccc(C(=O)N[C@@H](CCCNC(=N)CF)c3nc4ccccc4[nH]3)c2C1=O: 240
- N=C(CF)NCCC[C@H](NC(=O)c1ccccc1C(=O)O)c1nc2ccccc2[nH]1: 25
- N=C(CF)NCCC[C@H](NC(=O)c1ccc(-c2ccc(F)cc2)cc1)c1nc2cc(F)c(F)cc2[nH]1: 23.7
- CCN1Cc2cccc(C(=O)N[C@@H](CCCNC(=N)CF)c3nc4ccccc4n3C)c2C1=O: 546

I. CCN1Cc2cccc(C(=O)N[C@@H](CCCNC(=N)CCl)c3nc4c(OC)cccc4n3C)c2C1=O
II. Cn1c([C@H](CCCNC(=N)CCl)NC(=O)c2ccccc2C(=O)O)nc2ccccc21
III. CC(C)n1c([C@H](CCCNC(=N)CCl)NC(=O)c2ccccc2C(=O)OC(C)(C)C)nc2ccccc21
Put the items in sequence by kinact/KI, from largest down. The reply should contain the labels ordered as requested.
I, II, III
